test system: Shigella flexneri; assay: Antibacterial activity against Shigella flexneri NCTC 8516 after 18 hrs; format: functional; settings: NCTC 8516, 18 h
Please provide measured MIC for the entries that follow.
Enter your answer as a number in µg/mL; do not include the unit.

IN: Respond only with MIC recorded for C[C@H]1COc2c(N3CCN(CC(=O)c4ccccc4)CC3)c(F)cc3c(=O)c(C(=O)O)cn1c23
OUT: 0.25

IN: Specify measured MIC for C[C@H]1COc2c(N3CCN(CC(=O)c4ccc(Br)cc4)CC3)c(F)cc3c(=O)c(C(=O)O)cn1c23 .
OUT: 0.5

IN: Specify measured MIC for C[C@H]1COc2c(N3CCN(C/C(=N\O)c4ccc(Cl)cc4)CC3)c(F)cc3c(=O)c(C(=O)O)cn1c23 .
OUT: 0.5

IN: Query MIC for COc1ccc(C(=O)CN2CCN(c3c(F)cc4c(=O)c(C(=O)O)cn5c4c3OC[C@@H]5C)CC2)cc1
OUT: 0.5

IN: Query MIC for C[C@H]1COc2c(N3CCN(CC(=O)c4ccc(F)cc4)CC3)c(F)cc3c(=O)c(C(=O)O)cn1c23
OUT: 1

IN: Note MIC for the compound shown: C[C@H]1COc2c(N3CCN(C/C(=N\O)c4ccc(Br)cc4)CC3)c(F)cc3c(=O)c(C(=O)O)cn1c23
OUT: 0.5

IN: Return MIC for the following compound: C[C@H]1COc2c(N3CCN(C/C(=N\O)c4ccc(F)cc4)CC3)c(F)cc3c(=O)c(C(=O)O)cn1c23
OUT: 1

IN: For the compound C[C@H]1COc2c(N3CCN(C/C(=N\O)c4ccccc4)CC3)c(F)cc3c(=O)c(C(=O)O)cn1c23 , give its measured MIC value.
OUT: 0.5

IN: State, in one line, measured MIC of C[C@H]1COc2c(N3CCN(CC(=O)c4ccc(Cl)cc4Cl)CC3)c(F)cc3c(=O)c(C(=O)O)cn1c23
OUT: 1

IN: Identify measured MIC corresponding to C[C@H]1COc2c(N3CCN(C)CC3)c(F)cc3c(=O)c(C(=O)O)cn1c23.C[C@H]1COc2c(N3CCN(C)CC3)c(F)cc3c(=O)c(C(=O)O)cn1c23.O
OUT: 0.03

IN: Tell me MIC reported for Cc1ccc(/C(CN2CCN(c3c(F)cc4c(=O)c(C(=O)O)cn5c4c3OC[C@@H]5C)CC2)=N/O)cc1
OUT: 1

IN: Specify measured MIC for C[C@H]1COc2c(N3CCN(CC(=O)c4ccc(Cl)cc4)CC3)c(F)cc3c(=O)c(C(=O)O)cn1c23 .
OUT: 0.25

IN: Given Cc1ccc(C(=O)CN2CCN(c3c(F)cc4c(=O)c(C(=O)O)cn5c4c3OC[C@@H]5C)CC2)cc1 , respond with its MIC.
OUT: 0.5

IN: Specify MIC for C[C@H]1COc2c(N3CCNCC3)c(F)cc3c(=O)c(C(=O)O)cn1c23 and stop.
OUT: 0.06

IN: Provide one value: measured MIC of C[C@H]1COc2c(N3CCN(C/C(=N\O)c4ccc(Cl)cc4Cl)CC3)c(F)cc3c(=O)c(C(=O)O)cn1c23
OUT: 4

IN: Query MIC for COc1ccc(/C(CN2CCN(c3c(F)cc4c(=O)c(C(=O)O)cn5c4c3OC[C@@H]5C)CC2)=N/O)cc1
OUT: 0.5
